# experiment-summary: NCI Yeast Anticancer Drug Screen. Data for the rad50 strain (AID 155);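 also: 0% = growth of vehicle-only cultures of the same strain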
# conditions-used: S. cerevisiae rad50 strain growth inhibition; at 50.0 µM; stronger effect = higher value
This is part of a sample that, as a whole, favours compounds with a hit. Of some 79,000 tested, about 15% had one in any assay.

compound	growth inhibition [%]
ClCCCBr	29.2
CCCCCCCCCCCOP(=O)(OCC)OCC	99.5
COc1cc(C(c2c(O)c3ccccc3oc2=O)c2c(O)c3ccccc3oc2=O)cc(OC)c1OC	-2.1
CC(CCC/C=C/CCCN(C)C(=N)N)CC(C)C1OC(=O)C(C)C(O)/C=C/C(C)C(O)C(C)C(O)C(C)C(O)CCCC(O)CC2(O)OC(CC(OC(=O)CC(=O)O)CC(O)CC(O)C(C)C(O)/C=C/C=C/C1C)CC(O)C2O (stereo not drawn)	92.9
C=C[CH2][Sn]([CH3])([CH3])[CH2]C=C	11.1
OC(c1ccccc1)C1CCCCN1 (stereo not drawn)	-7.95
CC12C(=O)C=CCC1=CCC1C2CCC2(O)C(=O)OC3(C)C4CC5(C)C(COC16OC23C5C6=O)C(=O)O4 (stereo not drawn)	78.8
CCOP(=S)(OCC)Oc1ccccc1	-3.8
ClCCN(CCCl)c1ccc(N=Cc2ccccc2)cc1	24.9
O=P1(O)NP(=O)(O)NP(=O)(O)NP(=O)(O)N1	-9.45
CCCP(=S)(CCC)P(=S)(CCC)CCC	5.4
CC1(C)Cc2cccc(C=C(C#N)C#N)c2O1	6.9
c1ccc2c(c1)CN1Cc3ccccc3C2C1	6.6
O=[As](O)(O)c1ccccc1	18.2
Oc1c(Cl)c(Cl)cc(Cl)c1Cc1c(Cl)cc(Cl)c(Cl)c1[O][Pb]([c]1ccccc1)([c]1ccccc1)[c]1ccccc1	99.5
O=C1NC(=S)NC(=O)C1=CC1CC1	22.6
C[N+](C)(C)CCNP(=O)(Oc1ccccc1)c1ccccc1 (stereo not drawn)	4.15
Cc1cc(C)n(-c2nc3ccccc3c(=O)n2-c2ccccc2)n1	-2.9
CCOC(=O)[C]1([Pb]([CH3])([CH3])[CH3])N=NC(C(=O)OC)=C1C(=O)OC (stereo not drawn)	68.8
CC(=O)OCC12CCC(C)=CC1OC1C(N(C)C)C(O)C2(C)C12CO2 (stereo not drawn)	33.1
CCCCCCCNC(=O)CBr	44
CC(=O)C1(c2ccccc2)CCCN(C)CC1 (stereo not drawn)	-7.8
COc1ccc(/C=C\[N+](=O)[O-])cc1OCc1ccccc1	7.2
